# TARGET_SYSTEM: T1, human melanocortin-5 receptor (hMC5-R) (human, UniProt P33032 1-325)
# T1 construct: whole, on cells; membranes prepared from hMC5-R cells were used; also called Melanocortin Receptor 5
# T1 sequence (P33032 whole entry): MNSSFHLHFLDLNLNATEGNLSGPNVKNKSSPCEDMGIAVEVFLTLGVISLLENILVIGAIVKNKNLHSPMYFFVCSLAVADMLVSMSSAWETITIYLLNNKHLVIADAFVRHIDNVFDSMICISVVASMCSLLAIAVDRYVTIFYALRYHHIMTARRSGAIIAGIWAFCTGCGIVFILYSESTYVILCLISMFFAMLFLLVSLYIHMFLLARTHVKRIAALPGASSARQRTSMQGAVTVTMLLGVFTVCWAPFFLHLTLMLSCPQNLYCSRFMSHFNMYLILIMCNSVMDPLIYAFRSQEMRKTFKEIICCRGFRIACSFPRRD
# ASSAY_OVERVIEW: 125I-NDP-α-MSH competition, hMC5-R membranes
Square brackets hold non-standard residues; d marks the D form. Ends that are not written are not given here. Nle = CCCC[C@H](N)C(=O)O
Here, each record is paired with measured % Inhibition at 1 µM data.
Write the number in % without appending the unit.

Previously resolved entries follow.
BINDER: YV[Nle]GH[dF]RWDCF-NH2 (also: oxorhenium(V) N3S1 chelate: C10 SG + backbone N of W8, D9, C10, bridge at 10 via Re(V)=O, other end not in the chain) [metallopeptide 5-2]
% Inhibition at 1 µM, %: 61
//
BINDER: YV[Nle]GH[dF]CWDRF-NH2 (also: oxorhenium(V) N3S1 chelate: C7 SG + backbone N of H5, F6, C7, bridge at 7 via Re(V)=O, other end not in the chain) [metallopeptide 5-5]
% Inhibition at 1 µM, %: 28
//
BINDER: YV[Nle]GH[dF]RWCRF-NH2 (also: oxorhenium(V) N3S1 chelate: C9 SG + backbone N of R7, W8, C9, bridge at 9 via Re(V)=O, other end not in the chain) [metallopeptide 5-3]
% Inhibition at 1 µM, %: 100
//
BINDER: YV[Nle]CH[dF]RWDRF-NH2 (also: oxorhenium(V) N3S1 chelate: C4 SG + backbone N of V2, X3, C4, bridge at 4 via Re(V)=O, other end not in the chain) [metallopeptide 5-8]
% Inhibition at 1 µM, %: 98

Record YVXGHFRWDRF (Nle 3 (X in letters); D-Phe 6; C-terminal amide, not complexed to Re) [[Nle3, D-Phe6]-γ-MSH parent polypeptide Tyr-Val-Nle-Gly-His-D-Phe-Arg-Trp-Asp-Arg-Phe-NH2] . Reported % Inhibition at 1 µM: 100

Record YV[Nle]GH[dF]RCDRF-NH2 (also: oxorhenium(V) N3S1 chelate: C8 SG + backbone N of F6, R7, C8, bridge at 8 via Re(V)=O, other end not in the chain) [metallopeptide 5-4] . Reported % Inhibition at 1 µM: 58

Record YV[Nle]GC[dF]RWDRF-NH2 (also: oxorhenium(V) N3S1 chelate: C5 SG + backbone N of X3, G4, C5, bridge at 5 via Re(V)=O, other end not in the chain) [metallopeptide 5-7] . Reported % Inhibition at 1 µM: 88

Record YV[Nle]GHCRWDRF-NH2 (also: oxorhenium(V) N3S1 chelate: C6 SG + backbone N of G4, H5, C6, bridge at 6 via Re(V)=O, other end not in the chain) [metallopeptide 5-6] . Reported % Inhibition at 1 µM: 21

Record YV[Nle]GH[dF]RWDRC-NH2 (also: oxorhenium(V) N3S1 chelate: C11 SG + backbone N of D9, R10, C11, bridge at 11 via Re(V)=O, other end not in the chain) [metallopeptide 5-1] . Reported % Inhibition at 1 µM: 98

Record YVCGH[dF]RWDRF-NH2 (also: oxorhenium(V) N3S1 chelate complex at Cys3) [metallopeptide 5-9] . Reported % Inhibition at 1 µM: 53
